Source: the RNAGym collection of RNA variant scans (doi:10.1073/pnas.2313332121)

B1: TPR t1 (parent)
chain: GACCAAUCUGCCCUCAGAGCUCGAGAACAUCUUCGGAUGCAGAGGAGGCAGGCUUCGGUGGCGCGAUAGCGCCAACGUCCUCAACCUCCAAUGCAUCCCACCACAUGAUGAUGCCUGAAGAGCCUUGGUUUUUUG

variants of: B1; experiment: polymerase ribozyme fitness, log enrichment relative to wild type (log ratio); higher = more active; in vitro selection for triplet polymerase activity
measurement kind: polymerase ribozyme fitness (log ratio)
One number for each entry.

>>> print(df.to_string())
   variant_key  recorded_result
0   C62A A105G            -4.17

Report polymerase ribozyme fitness (log ratio) for each item below.
1. G39A A83U
2. U96C U106A
3. G10C G42U G48A
4. C11U C20G G117U
5. A5U U7G G47A C72A
6. G117C C124A
7. C4G C8U C12A G42A G71A U106A U112G
8. C31A G57A C73U

Reply |
-0.65
-1.43
-2.39
-4.42
-0.365
-1.5
-4.39
-6.14

Report polymerase ribozyme fitness (log ratio) for each item below.
1. C11U C15G G51U A119G U133A
2. A41U G45U
3. G71A C101A G113U
4. C15A A43G C53U
5. C53G C97U A118U
6. C104A U112A
7. U32A A46U U54A G57C G58C C70U A121G

Reply |
-2.44
-1.99
-5.02
-3.68
-0.0977
0.162
-6.21

Report polymerase ribozyme fitness (log ratio) for each item below.
1. C56G G69C U87C G110A
2. C3A C102A U106C G120U C124U
3. G58C C70U
4. C28U G39U A111C
5. G47U G61U

Reply |
1: -5.42; 2: -2.57; 3: -0.846; 4: -6.59; 5: -2.36

Report polymerase ribozyme fitness (log ratio) for each item below.
1. C4U G69A
2. U96A C123G
3. A16C C123G
4. A6C G10A U30C G71A
5. U38G G44A G63C U96C

Reply |
1: -2.91; 2: 0.707; 3: -0.273; 4: -5.5; 5: -2.8

Report polymerase ribozyme fitness (log ratio) for each item below.
1. A43U A46U G71U U125A U129A
2. G36U G52A C97U G110A
3. C3U C11U C13G G63C U116C
4. C101A U132A

Reply |
1: -4.93; 2: -2.04; 3: -4.43; 4: -0.824

Report polymerase ribozyme fitness (log ratio) for each item below.
1. G51U C72A U106A
2. A6C C114U
3. A5C A24U

Reply |
[-3.24, -2.3, -5.29]

Report polymerase ribozyme fitness (log ratio) for each item below.
1. A2C G110A A121C
2. A43U U55A G127A
3. C53A G60U
4. C28A C76G G120A
5. U7G C80A C124A

Reply |
-2.66
-3.12
-0.129
-4.53
-1.1

Report polymerase ribozyme fitness (log ratio) for each item below.
1. C3U C62U A74U C89G
2. A29U G58A U106A

Reply |
-2.26
-1.28
